# Lookup of reported MIC keyed by entry
System: Ser. marcescens ES-75
Assay: Anti-bacterial activity (MIC), agar dilution
Type: cell-based
Conditions: Serratia marcescens, ES75, 18 h, Ser. marcescens ES-75; agar dilution, about 10^6 CFU/ml, 18 hours, 37° C.; read-out: MIC
Reply with just the number (in µg/mL).

Compound	Experimental Result
N#CCO/N=C(\C(=O)N[C@@H]1C(=O)N2C(C(=O)[O-])=C(/C=C/C[N+](CCO)(CCO)CCO)CS[C@H]12)c1nsc(N)n1 [Example 147]	0.2
C[N+](C)(C/C=C/C1=C(C(=O)[O-])N2C(=O)[C@@H](NC(=O)/C(=N\OCF)c3nsc(N)n3)[C@H]2SC1)Cc1cnc[nH]1 [Example 106]	0.1
CNC(=O)[C@H](C)[N+](C)(C)C/C=C/C1=C(C(=O)[O-])N2C(=O)[C@@H](NC(=O)/C(=N\OCF)c3nsc(N)n3)[C@H]2SC1 [Example 58]	0.05
CC(O)C[N+]1(C/C=C/C2=C(C(=O)[O-])N3C(=O)[C@@H](NC(=O)/C(=N\OCF)c4nsc(N)n4)[C@H]3SC2)CCOCC1 (stereo partly drawn) [Example 39]	0.1

Consider the record given below.
-- ask What is its MIC for Ser. marcescens ES-75? Entry: Nc1nc(/C(=N/OCF)C(=O)N[C@@H]2C(=O)N3C(C(=O)[O-])=C(/C=C/C[n+]4ccc(C(=O)NCCO)cc4)CS[C@H]23)ns1 [Example 84]
-- reply 0.1

====

System: Morganella morganii EP-14
Assay: Anti-bacterial activity (MIC), agar dilution
Assay type: cell-based
Conditions: Morganella morganii, EP14, 18 h, about 10^6 CFU/ml, 37° C., read-out: MIC
Endpoint Name: MIC

Field: example entries. Status: answers known.
Compound	Measurement Target	Endpoint Name	Experimental Result
C[C@@H](O)[C@@H](C(N)=O)[N+](C)(C)C/C=C/C1=C(C(=O)[O-])N2C(=O)[C@@H](NC(=O)/C(=N\OCC#N)c3nsc(N)n3)[C@H]2SC1	Morganella morganii EP-14	MIC	0.1 µg/mL
C[N+](C/C=C/C1=C(C(=O)[O-])N2C(=O)[C@@H](NC(=O)/C(=N\OCF)c3nsc(N)n3)[C@H]2SC1)(CCO)CCO	Morganella morganii EP-14	MIC	≤ 0.025 µg/mL
CC(=O)C[N+](C)(C)C/C=C/C1=C(C(=O)[O-])N2C(=O)[C@@H](NC(=O)/C(=N\OCC#N)c3nsc(N)n3)[C@H]2SC1	Morganella morganii EP-14	MIC	0.1 µg/mL
NC(=O)C[N+]1(C/C=C/C2=C(C(=O)[O-])N3C(=O)[C@@H](NC(=O)/C(=N\OCF)c4nsc(N)n4)[C@H]3SC2)CCC(C(N)=O)CC1 (stereo partly drawn)	Morganella morganii EP-14	MIC	≤ 0.025 µg/mL

Consider the record given below.
-- ask Value lookup for MIC; key = NC(=O)C[N+]1(C/C=C/C2=C(C(=O)[O-])N3C(=O)[C@@H](NC(=O)/C(=N\OCF)c4nsc(N)n4)[C@H]3SC2)CCC(O)C1 (stereo partly drawn)
-- reply ≤ 0.025 µg/mL

====

# Lookup of reported MIC keyed by entry
System: Staph. aureus 209-P
Test: Anti-bacterial activity (MIC), agar dilution
Format: cell-based
Details: Staphylococcus aureus, 209P, 18 h, Staph. aureus 209-P; agar dilution, about 10^6 CFU/ml, 18 hours, 37° C.; read-out: MIC
Reply with just the number (in mg/L).

Field: example entries. Status: answers known.
Compound	MIC [mg/L]
C[N+](C)(C/C=C/C1=C(C(=O)[O-])N2C(=O)[C@@H](NC(=O)/C(=N\OCF)c3nsc(N)n3)[C@H]2SC1)C(CO)(CO)CO	0.1
NC(=O)C[N+]1(C/C=C/C2=C(C(=O)[O-])N3C(=O)[C@@H](NC(=O)/C(=N\OCF)c4nsc(N)n4)[C@H]3SC2)CCC(C(N)=O)CC1 (stereo partly drawn)	0.4

Consider the record given below.
-- ask Value lookup for MIC; key = "C[N+]1(C/C=C/C2=C(C(=O)[O-])N3C(=O)[C@@H](NC(=O)/C(=N\OCF)c4nsc(N)n4)[C@H]3SC2)CCN(C=N)CC1.Cl"
-- reply 0.4

====

System: Ser. marcescens ES-75
Assay: Anti-bacterial activity (MIC), agar dilution
Assay type: cell-based
Conditions: Serratia marcescens, ES75, 18 h, Ser. marcescens ES-75; agar dilution, about 10^6 CFU/ml, 18 hours, 37° C.; read-out: MIC
# Lookup of reported MIC keyed by entry

Field: example entries. Status: answers known.
Molecule	Endpoint Name	Experimental Result
CC(=N)N1CC[N+](C)(C/C=C/C2=C(C(=O)[O-])N3C(=O)[C@@H](NC(=O)/C(=N\OCF)c4nsc(N)n4)[C@H]3SC2)CC1	MIC	0.4 µg/mL
Nc1nc(/C(=N/OCF)C(=O)N[C@@H]2C(=O)N3C(C(=O)[O-])=C(/C=C/C[N+]4(CCO)CCC(O)CC4)CS[C@H]23)ns1 (stereo partly drawn)	MIC	≤ 0.025 µg/mL

Consider the record given below.
-- ask Value lookup for MIC; key = C[N+]1(C/C=C/C2=C(C(=O)[O-])N3C(=O)[C@@H](NC(=O)/C(=N\OCF)c4nsc(N)n4)[C@H]3SC2)C[C@H](O)C[C@@H]1CO (single isomer, unassigned)
-- reply ≤ 0.025 µg/mL

====

Tested on: Kleb. pneumoniae EK-6
Test: Anti-bacterial activity (MIC), agar dilution
Format: cell-based
Conditions: Klebsiella pneumoniae, EK6, 18 h, Kleb. pneumoniae EK-6; agar dilution, about 10^6 CFU/ml, 18 hours, 37° C.; read-out: MIC
Description: MIC (μg/ml) were determined by an agar dilution method [Chemotherapy (Japan), 29, 76-79, 1981]. Overnight cultures of the bacterial strains in Mueller-Hinton broth were diluted to final concentration of about 10^6 CFU/ml, and 5 μl of each bacterial suspension was spotted onto Mueller-Hinton agar plates that contained twofold serial dilutions of antibiotics. MICs were measured after incubation for 18 hours at 37° C.
Endpoint Name: MIC

Compound	MIC
N#CCO/N=C(\C(=O)N[C@@H]1C(=O)N2C(C(=O)[O-])=C(/C=C/C[N+]34CCCN3CCC4)CS[C@H]12)c1nsc(N)n1 [Example 161]	0.05 µg/mL
C[N+](C)(C)C/C=C/C1=C(C(=O)[O-])N2C(=O)[C@@H](NC(=O)/C(=N\OCF)c3nsc(N)n3)[C@H]2SC1 [Example 128]	0.05 µg/mL
COCC[N+](C)(C)C/C=C/C1=C(C(=O)[O-])N2C(=O)[C@@H](NC(=O)/C(=N\OCF)c3nsc(N)n3)[C@H]2SC1 [Example 99]	≤ 0.025 µg/mL
Nc1nc(/C(=N/OCF)C(=O)N[C@@H]2C(=O)N3C(C(=O)[O-])=C(/C=C/C[N+]4(CC(O)CO)CCCC4)CS[C@H]23)ns1 (single isomer, unassigned) [Example 23-1]	≤ 0.025 µg/mL
NCC[N+]1(C/C=C/C2=C(C(=O)[O-])N3C(=O)[C@@H](NC(=O)/C(=N\OCF)c4nsc(N)n4)[C@H]3SC2)CCCC1 [Example 22]	0.05 µg/mL
CC[N+](C)(CC#N)C/C=C/C1=C(C(=O)[O-])N2C(=O)[C@@H](NC(=O)/C(=N\OCF)c3nsc(N)n3)[C@H]2SC1 (stereo partly drawn) [Example 45]	≤ 0.025 µg/mL
Nc1nc(/C(=N/OCF)C(=O)N[C@@H]2C(=O)N3C(C(=O)[O-])=C(/C=C/C[n+]4ccc(C(=O)O)cc4)CS[C@H]23)ns1 [Example 125]	≤ 0.025 µg/mL
C[N+](C)(C/C=C/C1=C(C(=O)[O-])N2C(=O)[C@@H](NC(=O)/C(=N\OCF)c3nsc(N)n3)[C@H]2SC1)CC(O)CO (stereo partly drawn) [Example 88]	≤ 0.025 µg/mL
NC(=O)NCC[N+]1(C/C=C/C2=C(C(=O)[O-])N3C(=O)[C@@H](NC(=O)/C(=N\OCF)c4nsc(N)n4)[C@H]3SC2)CCOCC1 [Example 36]	≤ 0.025 µg/mL
N#CCO/N=C(\C(=O)N[C@@H]1C(=O)N2C(C(=O)[O-])=C(/C=C/C[n+]3ccc(C(N)=O)cc3)CS[C@H]12)c1nsc(N)n1 [Example 158]	≤ 0.025 µg/mL

-- ask Value lookup for MIC; key = CC(O)C[N+](C)(C)C/C=C/C1=C(C(=O)[O-])N2C(=O)[C@@H](NC(=O)/C(=N\OCF)c3nsc(N)n3)[C@H]2SC1 (stereo partly drawn) [Example 4]
-- reply ≤ 0.025 µg/mL

-- ask How about this compound: CC[N+](C)(C/C=C/C1=C(C(=O)[O-])N2C(=O)[C@@H](NC(=O)/C(=N\OCF)c3nsc(N)n3)[C@H]2SC1)CCO (stereo partly drawn) [Example 44]
-- reply ≤ 0.025 µg/mL
